Entry source: ChEMBL document CHEMBL1125621

# assayed.system: Muscarinic acetylcholine receptor M3 (Mus musculus)
# assay.notes: Increase in phosphoinositide (PI) metabolism in A9L-cholinergic receptor, muscarinic 3 expressing cells was measured at 100 uMolar
# Format: functional
# test.conditions: 100 uM
assay.readout: PI turnover
Enter a number only.

Reported PI turnover of CC(=O)N(C)CC#CCN1CCC(OS(=O)(=O)c2ccc(C)cc2)C1.O=C(O)C(=O)O (configuration not stated) : 23.1

Form field PI turnover, entry CC(=O)N(C)CC#CCN1CCN(C(C)=O)CC1.O=C(O)C(=O)O : 3.1

###

# assayed.system: Muscarinic acetylcholine receptor M3 (Mus musculus) (UniProt Q9ERZ3)
# Sequence (Q9ERZ3 whole entry): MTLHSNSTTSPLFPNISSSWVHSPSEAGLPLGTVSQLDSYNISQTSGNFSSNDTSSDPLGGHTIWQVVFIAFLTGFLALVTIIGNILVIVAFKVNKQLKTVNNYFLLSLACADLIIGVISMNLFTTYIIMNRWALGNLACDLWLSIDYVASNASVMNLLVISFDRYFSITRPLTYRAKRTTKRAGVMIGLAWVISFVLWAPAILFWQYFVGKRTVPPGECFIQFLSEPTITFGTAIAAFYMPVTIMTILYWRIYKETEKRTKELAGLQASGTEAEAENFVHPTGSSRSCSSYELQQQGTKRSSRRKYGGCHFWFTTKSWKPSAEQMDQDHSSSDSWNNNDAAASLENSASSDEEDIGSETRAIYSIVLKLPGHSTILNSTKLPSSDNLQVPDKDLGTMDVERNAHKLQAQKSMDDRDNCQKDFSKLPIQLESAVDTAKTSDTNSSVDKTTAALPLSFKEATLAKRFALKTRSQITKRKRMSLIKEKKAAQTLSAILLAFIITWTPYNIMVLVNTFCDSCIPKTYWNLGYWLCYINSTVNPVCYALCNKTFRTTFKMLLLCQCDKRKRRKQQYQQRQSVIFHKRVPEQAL
# assay.notes: Increase in phosphoinositide (PI) metabolism in A9L-cholinergic receptor, muscarinic 3 expressing cells was measured at 100 uMolar
# Type: functional
# test.conditions: 100 uM
assay.readout: PI turnover

Here is how some compounds turned out for PI turnover.
compound | assay.readout | test.value
CC(=O)N(C)CC#CCN1CCCC1 | PI turnover | 41.6
CC(=O)N(C)CC#CCN1CCC(F)C1.O=C(O)C(=O)O (stereo not given) | PI turnover | 7.9
CCOC(=O)C1CCCN(CC#CCN(C)C(C)=O)C1.O=C(O)C(=O)O (stereo not given) | PI turnover | 12.9
CCOC(=O)C1CCCCN1CC#CCN(C)C(C)=O.O=C(O)C(=O)O (stereo not given) | PI turnover | 15.2

The compound identified as CC(=O)N(C)CC#CCN1CCCC(O)C1 (stereo not given) registered its PI turnover at 4.9

Looking up CC(=O)N(C)CC#CCN1CCCC(CO)C1 (stereo not given) , I found its PI turnover recorded as 2.8

Record summary for CC(=O)N(C)CC#CCN1CCNCC1.O=C(O)C(=O)O : reported PI turnover = 12

The reported PI turnover of the compound CC(=O)N(C)CC#CCN1CCC[C@@H]1CO.O=C(O)C(=O)O was 4.8

Entry under test: CC(=O)N(C)CC#CCN1CCC(CO)CC1.O=C(O)C(=O)O . Its PI turnover was 16

// field: PI turnover; key: CCOC(=O)C1CCN(CC#CCN(C)C(C)=O)CC1.O=C(O)C(=O)O ; value = 8.8

Measured PI turnover, CC(=O)N(C)CC#CCN1CCC(O)CC1 : 2.6

# PI turnover (compound: CC(=O)N(C)CC#CCN1CCC[C@H]1CO.O=C(O)C(=O)O ) is 4.7

The value of PI turnover measured for the compound CC(=O)OC[C@H]1CCCN1CC#CCN(C)C(C)=O turned out to be 2.6

PI turnover reported for this compound CC(=O)N(C)CC#CCN1CCC[C@@H]1CF.O=C(O)C(=O)O : 10.4

For record CC(=O)N(C)CC#CCN1CCC(C(=O)O)CC1 the listed PI turnover is 5.2

So, CC(=O)N(C)CC#CCN1CCC[C@H]1CF.O=C(O)C(=O)O ? Its PI turnover was 10.6

The compound listed as CC(=O)N(C)CC#CCN1CCCCC1CO.O=C(O)C(=O)O (stereo not given) shows PI turnover equal to 12.5

Query CC(=O)N(C)CC#CCN1CCC(O)C1.O=C(O)C(=O)O (stereo not given) yields PI turnover of 7.4

Entry C[N+](C)(C)CCOC(N)=O — recorded PI turnover = 86.1

Quick note, PI turnover for O=C1CCCN1CC#CCN1CCCC1 landed at 35.6

Briefly, PI turnover measured for CC(=O)N(C)CC#CCN1CCC(OC(=O)c2ccccc2)C1.O=C(O)C(=O)O (stereo not given) : 4

Lab book: PI turnover of CC(=O)N(C)CC#CCN1CCC1.O=C(O)C(=O)O noted as 59.8

So, CC(=O)N(C)CC#CCN1CCC(OS(C)(=O)=O)C1.O=C(O)C(=O)O (stereo not given) ? Its PI turnover was 17.2

Form field PI turnover, entry CC(=O)N(C)CC#CCN1CCCCC1 : 5.6

The measured PI turnover associated with COC[C@@H]1CCCN1CC#CCN(C)C(C)=O.O=C(O)C(=O)O reads 5.5
